The binders listed here are annotated with their No of serum samples >30% inhibition (30% CCP) without SCP (serum samples).
Molecular target: pre-existing anti-drug antibodies (ADA) present in human sera
Assay: pre-existing ADA ELISA, scFv coated, human sera unspiked vs spiked
No unit in the answer, please; the number alone is enough.

Take a look at these entries with their results.
1) PRO3311 (scFv 37-20-B03-sc09.1_(L12A, T101Q, L144A, T146Q)) (scFv, PRO2230 variant; VH substitutions, AHo numbering; also called PRO2230 L12A-T101Q-L144A-T146Q) scFv: DIQMTQSPASLSASVGDRVTITCQASQSIGTYLAWYQQKPGKPPKLLIYRAFILASGVPSRFSGSGSGTDFTLTISSLQPEDFATYYCQSNFYSDSTTIGPNAFGTGTKVTVLGGGGGSGGGGSGGGGSGGGGSEVQLVESGGGAVQPGGSLRLSCAASGFSFNSDYWIYWVRQAPGKGLEWIASIYGGSSGNTQYASWAQGRFTISRDNSKNTVYLQMNSLRAEDQAVYFCARGYVDYGGATDLWGQGTAVQVSS: 10
2) PRO3321 (scFv 54-21-H03-sc01_(L12R, T101S, L144A, T146Q)) (scFv, PRO1922 variant; VH substitutions, AHo numbering; also called PRO1922 L12R-T101S-L144A-T146Q) scFv: DIQMTQSPSSLSASVGDRVTITCQASESIYSSLAWYQQKPGKAPKLLIYLASTLASGVPSRFSGSGSGTDFTLTISSLQPEDFATYYCQSTDYTTSTHRNSFGTGTKVTVLGGGGGSGGGGSGGGGSGGGGSEVQLVESGGGRVQPGGSLRLSCAASGFSFSTTYYMCWVRQAPGKGLEWIGCTNTASSVRTYYATWAKGRFTISRDNSKNTVYLQMNSLRAEDSAVYYCARDMGFADYALNLWGQGTAVQVSS: 0
3) PRO2947 (scFv 37-20-B03-sc09.1_(T146K)) (scFv, PRO2230 variant; VH substitution, AHo numbering; also called PRO2230 T146K) scFv: DIQMTQSPASLSASVGDRVTITCQASQSIGTYLAWYQQKPGKPPKLLIYRAFILASGVPSRFSGSGSGTDFTLTISSLQPEDFATYYCQSNFYSDSTTIGPNAFGTGTKVTVLGGGGGSGGGGSGGGGSGGGGSEVQLVESGGGLVQPGGSLRLSCAASGFSFNSDYWIYWVRQAPGKGLEWIASIYGGSSGNTQYASWAQGRFTISRDNSKNTVYLQMNSLRAEDTAVYFCARGYVDYGGATDLWGQGTLVKVSS: 2

Q: Entry PRO3329 (scFv 54-21-H03-sc01_(T101Q)) (scFv, PRO1922 variant; VH substitution, AHo numbering; also called PRO1922 T101Q) scFv: DIQMTQSPSSLSASVGDRVTITCQASESIYSSLAWYQQKPGKAPKLLIYLASTLASGVPSRFSGSGSGTDFTLTISSLQPEDFATYYCQSTDYTTSTHRNSFGTGTKVTVLGGGGGSGGGGSGGGGSGGGGSEVQLVESGGGLVQPGGSLRLSCAASGFSFSTTYYMCWVRQAPGKGLEWIGCTNTASSVRTYYATWAKGRFTISRDNSKNTVYLQMNSLRAEDQAVYYCARDMGFADYALNLWGQGTLVTVSS has what No of serum samples >30% inhibition (30% CCP) without SCP (serum samples)?
Ans: 2

Q: Entry PRO2932 (scFv 54-21-H03-sc01_(L144A, S148N)) (scFv, PRO1922 variant; VH substitutions, AHo numbering; also called PRO1922 L144A-S148N) scFv: DIQMTQSPSSLSASVGDRVTITCQASESIYSSLAWYQQKPGKAPKLLIYLASTLASGVPSRFSGSGSGTDFTLTISSLQPEDFATYYCQSTDYTTSTHRNSFGTGTKVTVLGGGGGSGGGGSGGGGSGGGGSEVQLVESGGGLVQPGGSLRLSCAASGFSFSTTYYMCWVRQAPGKGLEWIGCTNTASSVRTYYATWAKGRFTISRDNSKNTVYLQMNSLRAEDTAVYYCARDMGFADYALNLWGQGTAVTVNS has what No of serum samples >30% inhibition (30% CCP) without SCP (serum samples)?
Ans: 5
